target: T1, human CD33 (human, UniProt P20138 18-259, limits assumed); assay: BLI (ForteBio), Fab 100 nM on immobilized CD33
T1 construct: Human CD33 immobilized on the BLI sensor tip or the BIAcore C1 chip; also called Siglec-3
T1 sequence (P20138 18-259 limits assumed): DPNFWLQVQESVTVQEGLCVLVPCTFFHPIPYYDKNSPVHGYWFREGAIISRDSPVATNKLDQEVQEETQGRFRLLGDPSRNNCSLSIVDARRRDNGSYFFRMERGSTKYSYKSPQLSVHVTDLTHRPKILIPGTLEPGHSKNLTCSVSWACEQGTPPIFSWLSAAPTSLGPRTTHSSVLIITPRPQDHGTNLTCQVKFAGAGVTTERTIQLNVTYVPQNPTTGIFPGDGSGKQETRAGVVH
READOUT LABEL: kon (M⁻¹ s⁻¹)
Give your result in M⁻¹ s⁻¹ as a bare value.

BINDER	MEASURED RESULT
AB-H14 (antibody, V domains shown, Humanized variant of murine 2F5.1) VH: QVQLVQSGAEVKKPGASVKVSCKASGYTFTDYNLHWVRQAPGQGLEWIGFIYPSNGITGYAQKFQGRVTMTVDTSTSTVYMELSSLRSEDTAVYYCARSTVDYFDYWGQGTLVTVSS VL: DIQMTQSPSSLSASVGDRVTITCRASQSVSTSTYSYMHWYQQKPGKAPKLLIKYASNLESGVPSRFSGSGSGTDFTLTISSLQPEDFATYYCQHSWEIPLTFGQGTKLEIK	397000
AB-14.2 (antibody, V domains shown) VH: QVQLVQSGAEVKKPGASVKVSCKASGATFTDYNYHWVRQAPGQGLEWIGFIYPSNGITGYAQKFQDRVTMTVDTSTSTVYMELSSLRSEDTAVYYCARSFVDYFDYWGQGTLVTVSS VL: DIQMTQSPSSLSASVGDRVTITCRASQDVSTSTYSYMHWYQQKPGKAPKLLIKYASNLESGVPSRFSGSGSGTDFTLTISSLQPEDFATYYCQHSWEIPLTFGQGTKLEIK	991000

Now consider the entry below.
For the binder AB-14.6 (antibody, V domains shown) VH: QVQLVQSGAEVKKPGASVKVSCKASGYTFTDYNYHWVRQAPGQGLEWIGFIYPSNGITGYAQKFQGRVTMTVDTSTSTVYMELSSLRSEDTAVYYCARSDVDYFDYWGQGTLVTVSS VL: DIQMTQSPSSLSASVGDRVTITCRASQSVGTSTYSYMHWYQQKPGKAPKLLIKYASALESGVPSRFSGSGSGTDFTLTISSLQPEDFATYYCQHSWEIPLTFGQGTKLEIK , what kon is on record?
894000

Reference source for all entries: patent US20210139581A1
